Values from patent US20120115903A1

biological target: vanilloid receptor 1 (VR1/TRPV1 receptor) (Mus musculus); construct: expressed in transfected cells; host or cells: CHO K1 cells (inferred: method II; method I is described for rat DRG neurons only); test: FLIPR Ca2+ influx assay on vanilloid receptor 1, capsaicin stimulus (mouse); assay type: cell-based; conditions: Cap = capsaicin, Ki from IC50 by Cheng-Prusoff
Sequence (Q704Y3 whole entry): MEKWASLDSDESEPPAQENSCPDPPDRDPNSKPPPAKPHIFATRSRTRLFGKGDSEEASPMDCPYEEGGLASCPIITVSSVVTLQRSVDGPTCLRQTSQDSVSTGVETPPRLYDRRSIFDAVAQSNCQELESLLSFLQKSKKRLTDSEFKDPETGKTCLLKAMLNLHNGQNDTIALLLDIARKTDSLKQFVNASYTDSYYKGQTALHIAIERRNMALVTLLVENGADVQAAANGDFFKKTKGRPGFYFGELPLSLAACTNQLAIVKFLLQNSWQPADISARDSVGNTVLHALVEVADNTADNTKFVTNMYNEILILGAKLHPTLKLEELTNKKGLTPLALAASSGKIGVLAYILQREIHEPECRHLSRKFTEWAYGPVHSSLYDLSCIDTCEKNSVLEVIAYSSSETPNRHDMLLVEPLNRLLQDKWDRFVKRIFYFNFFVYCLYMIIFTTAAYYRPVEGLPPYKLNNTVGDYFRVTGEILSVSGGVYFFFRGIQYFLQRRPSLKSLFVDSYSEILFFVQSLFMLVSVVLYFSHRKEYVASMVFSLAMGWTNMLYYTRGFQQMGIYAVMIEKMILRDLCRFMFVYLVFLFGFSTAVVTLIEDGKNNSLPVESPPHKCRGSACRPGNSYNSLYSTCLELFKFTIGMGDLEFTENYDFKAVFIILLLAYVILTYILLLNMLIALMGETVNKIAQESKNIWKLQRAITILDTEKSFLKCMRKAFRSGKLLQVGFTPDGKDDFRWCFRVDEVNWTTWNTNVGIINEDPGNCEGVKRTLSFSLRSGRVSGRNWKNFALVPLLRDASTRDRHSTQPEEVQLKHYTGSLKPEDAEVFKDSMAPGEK
Exercise: for every item that follows, state its recorded Ki.
Just the number in nM, nothing appended.

IN: Supply Ki value. Item: Cc1cccc(-n2nc(C(F)(F)F)cc2CNC(=O)C(C)c2cn(C)c3ccc(O)cc23)c1 (centres unmarked)
OUT: 38.5

IN: Supply Ki value. Item: CC(C(=O)NCc1cc(C(F)(F)F)nn1-c1cccc(Cl)c1)c1cn(C)c2ccc(O)cc12 (centres unmarked)
OUT: 4.8
